Tested on: KM12 colon
Assay: NCI-60 one-dose screen, 48 h (100 = growth as untreated, 0 = no growth, -100 = all killed)
Conditions: 10 µM unless noted
This is part of a sample that, as a whole, favours compounds with a hit. Of some 83,000 tested, about 20% had one in any assay.
Answer each item with its documented growth.
# output: bare number, implied unit %

Exercise: Lab note: need growth for ClC1C2CC(c3ccccc32)C1Cl (configuration not stated) on KM12 colon, anyone have it?
Key: 116

Exercise: Lab note: need growth for `Cn1cc(-c2nc(-c3c[nH]c4ncccc34)cs2)c2cccnc21` on KM12 colon, anyone have it?
Key: 52.1

Exercise: Lab note: need growth for COc1ccc(C2CC(c3cccc(Nc4ccnc5cc(Cl)ccc45)c3)=NN2C=O)cc1 (configuration not stated) on KM12 colon, anyone have it?
Key: 23.1

Exercise: Lab note: need growth for `Cc1cc(NC(=O)c2ccc(N)cc2)ccc1N=Nc1ccc2c(O)c(N=Nc3ccc(Cl)c(S(=O)(=O)O)c3)c(S(=O)(=O)O)cc2c1` on KM12 colon, anyone have it?
Key: 90

Exercise: Lab note: need growth for `O=C(/C=C/c1cc2ccccc2[nH]c1=O)c1ccc(Cl)cc1` on KM12 colon, anyone have it?
Key: -1.06

Exercise: Lab note: need growth for `Nc1nc(Cl)c2[nH]cnc2n1` on KM12 colon, anyone have it?
Key: 109

Exercise: Lab note: need growth for `S=C1SCN(Cc2ccccc2)CN1Cc1ccco1` on KM12 colon, anyone have it?
Key: 58.2

---

Answer each item with its documented growth.
Test system: T-47D breast
Assay: NCI-60 one-dose screen, 48 h (100 = growth as untreated, 0 = no growth, -100 = all killed)
Conditions: 10 µM unless noted
Procedure: Growth inhibition of the T-47D human tumor cell line is measured as a screen for anti-cancer activity. Cells are grown in 96 well plates and exposed to the test compound for 48 hours. Compounds are tested at a single concentration, which is 10^-5 M for most compounds. The reported endpoint is percent growth (GI% or GIPRCNT), where numbers from 0 - 100% represent growth inhibition, and numbers from -100% - 0 represent cell death. For example, a value of 40 represents 60% growth inhibition. […]
Compounds without any hit were thinned out: in the full panel of roughly 83,000, 20% have a hit.
# output: bare number, implied unit %

Exercise: Lab note: need growth for `COc1ccc(/C=C(\C#N)c2ccccc2)cc1` on T-47D breast, anyone have it?
Key: 88.6

Exercise: Lab note: need growth for `COc1ccc(-c2nn(-c3ccccc3)cc2/C=C2\SC(=S)N(CCc3ccc(O)cc3)C2=O)cc1` on T-47D breast, anyone have it?
Key: 56.3

Exercise: Lab note: need growth for `O=C(Nc1ccccc1Cl)c1cnc2ccc(C3CCNCC3)cn12` on T-47D breast, anyone have it?
Key: 51.8

Exercise: Lab note: need growth for `O=C(COC(=O)[C@H](C[Se][Se]C[C@H](NC(=O)c1ccc(Br)cc1F)C(=O)OCC(=O)c1ccc(F)cc1)NC(=O)c1ccc(Br)cc1F)c1ccc(F)cc1` on T-47D breast, anyone have it?
Key: -67

Exercise: Lab note: need growth for `CC1(C)OC(=O)C(=Cc2ccccc2Br)C(=O)O1` on T-47D breast, anyone have it?
Key: 102

Exercise: Lab note: need growth for `Cc1cc2c(cc1C)Nc1sc(NC(=O)CN3CCN(C)CC3)nc1C(=O)N2` on T-47D breast, anyone have it?
Key: 94.1

Exercise: Lab note: need growth for CCCCCCCC/C=C/CCCCCCCC1=NC(C)(C)CN1CC(C)O (stereo unspecified) on T-47D breast, anyone have it?
Key: 28.6

Exercise: Lab note: need growth for `O=[N+]([O-])c1ccc(Oc2cccc(C(F)(F)F)c2)c([N+](=O)[O-])c1` on T-47D breast, anyone have it?
Key: 48

Exercise: Lab note: need growth for `COc1cc2c(-c3nc4cc(Cl)c(F)cc4s3)cc(=O)oc2c(C)c1OC` on T-47D breast, anyone have it?
Key: -14.1

Exercise: Lab note: need growth for CC1=C(C(=O)Nc2ccccc2)C(c2ccc3c(c2)OCCO3)NC(=O)N1 (stereo unspecified) on T-47D breast, anyone have it?
Key: 101

Exercise: Lab note: need growth for `CCCC[N+](CCCC)=c1ccc2nc3c(C)cc(N(CC)CC)cc3sc-2c1` on T-47D breast, anyone have it?
Key: -23.3

Exercise: Lab note: need growth for `O=C1CC(C(F)(F)F)=NN1C(=O)c1nn(-c2ccc(Cl)cc2)cc1O` on T-47D breast, anyone have it?
Key: 84.8

Exercise: Lab note: need growth for `CCc1ccc(CCN2C(=O)c3ccccc3C2=O)nc1` on T-47D breast, anyone have it?
Key: 94.8

Exercise: Lab note: need growth for `COc1ccc2nc3cc(Cl)ccc3c(Nc3cc(C(C)C)c(O)cc3C)c2c1` on T-47D breast, anyone have it?
Key: 13.9

Exercise: Lab note: need growth for CC(C)(C)c1ccc(C(O)CCCN2CCC(C(O)(c3ccccc3)c3ccccc3)CC2)cc1 (stereo unspecified) on T-47D breast, anyone have it?
Key: -69.3

Exercise: Lab note: need growth for `O=C(Oc1ccc[nH]c1=O)c1cccc(Cl)c1` on T-47D breast, anyone have it?
Key: 99.2

Exercise: Lab note: need growth for CC[N+](C)(CC)CCCC(C)Nc1ccnc2cc(Cl)ccc12 (stereo unspecified) on T-47D breast, anyone have it?
Key: 101

Exercise: Lab note: need growth for `Nc1nonc1-c1nc2ccccc2n1CC(=O)Nc1ccc2c(c1)COC2=O` on T-47D breast, anyone have it?
Key: 85.8

Exercise: Lab note: need growth for `c1ccc(N2CCN(c3nncc4ccccc34)CC2)nc1` on T-47D breast, anyone have it?
Key: 101

Exercise: Lab note: need growth for Nc1c2ccccc2nc2ccccc12 (tested in a mixture with another compound) on T-47D breast, anyone have it?
Key: 28.9

Exercise: Lab note: need growth for COc1cc(C2CC(=O)Nc3c2cc(Br)c2ccccc32)cc(Br)c1OC (stereo unspecified) on T-47D breast, anyone have it?
Key: 4.99

Exercise: Lab note: need growth for `O=[N+]([O-])c1ccc(N/N=C/c2c(O)ccc3ccccc23)nc1` on T-47D breast, anyone have it?
Key: 47.4

Exercise: Lab note: need growth for `CC(=O)Nc1ccc2c(c1)Cc1c(F)c(F)c(F)c(F)c1-2` on T-47D breast, anyone have it?
Key: 85.6

Exercise: Lab note: need growth for `Cc1nc2c(O)cccc2cc1CO` on T-47D breast, anyone have it?
Key: 99.4

Exercise: Lab note: need growth for COc1cc2c(C#N)n3c(c2cc1OC)C(=O)C(c1ccccc1)Oc1ccccc1-3 (stereo unspecified) on T-47D breast, anyone have it?
Key: 17.1

Exercise: Lab note: need growth for `O=C(O)C(=O)O` on T-47D breast, anyone have it?
Key: 94.4

Exercise: Lab note: need growth for `CCCc1nn(C)c2c(=O)[nH]c(-c3cc(S(=O)(=O)N4CCN(C)CC4)ccc3OCC)nc12` on T-47D breast, anyone have it?
Key: 98.4

Exercise: Lab note: need growth for `C/C(=C\CCc1ccoc1)CC/C=C(\C)CCCN1CCC(CO)CC1` on T-47D breast, anyone have it?
Key: 35.9

Exercise: Lab note: need growth for `O=C(Cc1ccccn1)C(F)(F)C(F)(F)C(F)(F)F` on T-47D breast, anyone have it?
Key: 102

Exercise: Lab note: need growth for `O=C(C=C=Nc1ccccc1)C(=O)N=C=Cc1ccccc1` on T-47D breast, anyone have it?
Key: 17.7

Exercise: Lab note: need growth for `Cc1ccccc1NC(=O)c1cc2ccccc2cc1O` on T-47D breast, anyone have it?
Key: 49.9

---

Test system: IGROV1 ovarian
Assay: NCI-60 one-dose screen, 48 h (100 = growth as untreated, 0 = no growth, -100 = all killed)
Settings: 10 µM unless noted
About 83,000 compounds went through this panel and 20% of them were active in at least one assay; those are over-represented in the sample as a whole.
Assay readout: growth (%)
# output: bare number, implied unit %

Exercise: Which growth value belongs to `C/C(=N/N=C(N)N)c1ccc(Cl)cc1` ?
Key: 14.6

Exercise: Which growth value belongs to `O=c1cc(-c2cccnc2)oc2c1ccc1ccccc12` ?
Key: 84.8

Exercise: Which growth value belongs to CO[C@H]1CC(O[C@@H]2/C(C)=C/C[C@@H]3C[C@@H](C[C@]4(CC[C@H](C)[C@@H](C5CCCCC5)O4)O3)OC(=O)[C@@H]3C=C(C)/C(=N/O)[C@H]4OC/C(=C\C=C\[C@@H]2C)[C@]43O)O[C@@H](C)C1O (some centres undefined) ?
Key: -47.4

Exercise: Which growth value belongs to `O=C(CCc1nnc2sc(Cc3ccccc3Cl)nn12)c1nc2ccccc2[nH]1` ?
Key: 90.9

Exercise: Which growth value belongs to O=C1CCCN1C1CCN(Cc2cc3ccccc3[nH]c2=O)c2ccccc21 (centres undefined) ?
Key: 90

Exercise: Which growth value belongs to `OCc1nnn(-c2ccccc2)c1CO` ?
Key: 108

Exercise: Which growth value belongs to `O=C1Cc2cc(CCn3cncn3)c(Cl)cc2N1` ?
Key: 84.7

Exercise: Which growth value belongs to `CC(C)[C@H]1CC[C@H]2[C@@H](CC[C@H]3[C@](C)(CN)CCC[C@]23C)C1` ?
Key: 92.6

Exercise: Which growth value belongs to `CC(=O)n1c2ccccc2c2ccccc21` ?
Key: 101

Exercise: Which growth value belongs to `O=C(Cn1ccnc1)NC(c1ccccc1)c1ccccc1` ?
Key: 106

Exercise: Which growth value belongs to CC(=O)O[C@H]1C(=O)[C@@]2(C)C([C@H](OC(=O)c3ccccc3)[C@]3(O)C[C@H](OC(=O)[C@H](O)[C@@H](NC(=O)c4ccccc4)c4ccccc4)C(C)=C1C3(C)C)[C@]1(OC(C)=O)CO[C@@H]1C[C@@H]2O (some centres undefined) ?
Key: 42

Exercise: Which growth value belongs to `COc1ccc(-c2noc(N)c2-c2cc(OC)c3c(c2)OCO3)cc1` ?
Key: 44.6

Exercise: Which growth value belongs to `COc1ccc(Nc2ccnc(NCCCNc3ccnc4cc(Cl)ccc34)n2)cc1` ?
Key: 21.7

Exercise: Which growth value belongs to `CCN(CC)c1ccc(CN(CC(=O)c2ccc(Cl)c(Cl)c2)Cc2ccccc2)cc1` ?
Key: 107
